What follows is literature data on IC50 for ROCK2 (Homo sapiens, UniProt O75116).
Just the number please, in nM, no unit attached.

> print(dat)
                                   molecule                         tested.system  meas.value
1  COc1cc(N2CCC3(CCN(C(=O)c4ccc(-n5ccnc5)cc4)CC3)C2=O)ccc1-c1cn[nH]c1  ROCK2 (Homo sapiens, UniProt O75116)          13
2  CN1CCN(C2CCN(C(=O)c3cc4ccc(-c5nccc(Nc6ccc7[nH]ncc7c6)n5)cc4[nH]3)CC2)CC1  ROCK2 (Homo sapiens, UniProt O75116)         258
3  O=C(Nc1ccc(-c2n[nH]c(=O)c3ccccc23)cc1)c1ccc(N2CCCCC2)cc1  ROCK2 (Homo sapiens, UniProt O75116)         2.1
4  CN(C)C(=O)c1cc2ccc(-c3nccc(Nc4ccc(-c5cn[nH]c5)c(F)c4)n3)cc2[nH]1  ROCK2 (Homo sapiens, UniProt O75116)         120
5  O=C(N[C@H](CO)c1c(F)cccc1F)c1ccc(-c2cn[nH]c2)c(OC(F)F)c1  ROCK2 (Homo sapiens, UniProt O75116)        13.8

Output measured IC50 for this item: CN1CCC(N2CCCC(NC(=O)c3cc4ccc(-c5nccc(Nc6ccc7[nH]ncc7c6)n5)cc4[nH]3)C2)CC1 (stereo not shown)
18

Output measured IC50 for this item: `COc1cc(N2CCC3(CCN(C(=O)c4ccc(N5CCN(CCOCc6ccccc6)CC5)cc4)CC3)C2=O)ccc1-c1cn[nH]c1`
0.4

====

What follows is literature data on IC50 for ROCK2 (Homo sapiens, UniProt O75116).

The examples below pair each entry with its known result.
> print(dat)
                                   compound      meas.value
1  COc1cc(CN2CCN(c3ccc(-c4cn[nH]c4)c(C#N)c3)C2=O)ccc1F  200 to 2000 nM
2  Cc1cc(F)ccc1Cn1ccn(-c2ccc(-c3cn[nH]c3)cc2)c1=O  20.1 to 200 nM
3  COc1cc(F)cc([C@@H](CO)NC(=O)c2cnc3cc(-c4cn[nH]c4)ccn23)c1         ≤ 50 nM

Output reported IC50 of the compound CCc1nc(-n2ccn(C(C)c3cccc(OCC4CC4)c3)c2=O)ccc1-c1cn[nH]c1 (single isomer, unassigned) on ROCK2 (Homo sapiens, UniProt O75116).
Sequence (O75116 whole entry, species assumed): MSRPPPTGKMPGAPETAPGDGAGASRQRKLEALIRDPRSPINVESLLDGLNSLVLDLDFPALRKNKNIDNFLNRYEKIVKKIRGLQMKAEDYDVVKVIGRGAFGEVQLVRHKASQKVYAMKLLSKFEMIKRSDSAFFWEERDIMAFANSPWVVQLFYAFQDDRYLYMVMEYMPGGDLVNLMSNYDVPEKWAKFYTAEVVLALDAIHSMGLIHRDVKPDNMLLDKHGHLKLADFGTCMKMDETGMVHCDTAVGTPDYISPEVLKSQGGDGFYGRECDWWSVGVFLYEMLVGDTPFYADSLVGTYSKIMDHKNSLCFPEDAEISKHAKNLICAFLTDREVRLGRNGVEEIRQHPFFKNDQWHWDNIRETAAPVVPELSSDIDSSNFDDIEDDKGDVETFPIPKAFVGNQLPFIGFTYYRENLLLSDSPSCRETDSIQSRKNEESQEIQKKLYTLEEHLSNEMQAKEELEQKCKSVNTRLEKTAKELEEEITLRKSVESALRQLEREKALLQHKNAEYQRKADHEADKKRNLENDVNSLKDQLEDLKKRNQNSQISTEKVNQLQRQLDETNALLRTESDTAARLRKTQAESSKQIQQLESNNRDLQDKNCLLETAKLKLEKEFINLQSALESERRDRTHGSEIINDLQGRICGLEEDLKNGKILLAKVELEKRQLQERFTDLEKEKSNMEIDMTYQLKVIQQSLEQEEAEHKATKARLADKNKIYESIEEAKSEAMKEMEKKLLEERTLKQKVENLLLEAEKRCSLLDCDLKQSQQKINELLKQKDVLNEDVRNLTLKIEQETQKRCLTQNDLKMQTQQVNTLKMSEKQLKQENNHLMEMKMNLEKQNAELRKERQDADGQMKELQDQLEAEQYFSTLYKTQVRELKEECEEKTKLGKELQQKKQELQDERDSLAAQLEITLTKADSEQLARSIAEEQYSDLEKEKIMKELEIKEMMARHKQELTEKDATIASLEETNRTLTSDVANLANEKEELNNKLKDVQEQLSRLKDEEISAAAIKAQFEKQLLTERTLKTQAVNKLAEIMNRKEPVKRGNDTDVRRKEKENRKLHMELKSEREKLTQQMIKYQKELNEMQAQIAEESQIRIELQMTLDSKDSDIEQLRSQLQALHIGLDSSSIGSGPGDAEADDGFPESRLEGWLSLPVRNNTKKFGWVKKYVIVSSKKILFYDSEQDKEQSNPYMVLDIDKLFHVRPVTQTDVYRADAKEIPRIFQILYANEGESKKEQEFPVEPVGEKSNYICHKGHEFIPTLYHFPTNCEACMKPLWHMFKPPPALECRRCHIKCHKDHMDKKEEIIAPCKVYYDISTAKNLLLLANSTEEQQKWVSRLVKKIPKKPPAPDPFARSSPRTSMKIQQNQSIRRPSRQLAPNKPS
20.1 to 200 nM

Output reported IC50 of the compound O=C(NCc1ccccc1)C1CCN(c2ccc(-c3n[nH]c(=O)c4ccccc34)cc2)C1=O (centres unmarked) on ROCK2 (Homo sapiens, UniProt O75116).
100 to 500 nM

====

What follows is literature data on pIC50 for ROCK2 (Homo sapiens).
By convention, pIC50 is the negative base-10 log of a molar concentration.

> print(dat)
                                   compound  meas.value
1  NC(=O)c1cccnc1O[C@H]1C[C@]2(C1)C[C@H](N1C(=O)C[C@H](c3cccc(Br)c3)NC1=O)C2 (some centres unmarked)        6.21
2  COc1ccc2c(c1)CCc1sc(NC(=O)Cc3ccc(Oc4ncccc4C(N)=O)c(Cl)c3)nc1-2        8.10
3  COc1cccc(C2(NC(=O)c3ccc(-c4cn[nH]c4)c(OC)c3)CC2)c1        7.75

Output reported pIC50 of the compound `Nc1cc(-c2cn[nH]c2)ccc1C(=O)NCCCc1ccccc1` on ROCK2 (Homo sapiens).
6.70
